# ASSAY_NAME: reversal of MRP1-mediated doxorubicin resistance, pilot screen, H69AR cells, doxorubicin co-treatment (AID 601)
# CONDITION_SUMMARY: H69AR cells + 2 uM doxorubicin, CellTiter-Glo, 72 h; measured here: viability with 2 uM doxorubicin; at 10 µM; stronger effect = lower value
Task for the reader: assign each of the following compounds its reported viability.
The answer is to be given in %; state only the numeric part.

For reference, reported viability for "COc1ccc2c(c1OC)C(=O)O[C@@H]2[C@H]1c2c(cc3c(c2OC)OCO3)CCN1C" stands at 84.1

For reference, reported viability for CCOc1ccccc1N1CCN(c2nc3ccccc3nc2C(C#N)C(=O)OC)CC1 (stereo unspecified) stands at 88.5

For reference, reported viability for "COC(=O)c1ccccc1NC(=O)c1cnc2sccn2c1=O" stands at 95.5

For reference, reported viability for "CCCn1cnc2c(cnn2-c2ccc(F)cc2)c1=O" stands at 97.3

For reference, reported viability for "COc1ccc(-c2n[nH]c(C)c2-c2ccc(Cl)cc2)c(O)c1OC" stands at 33.8

For reference, reported viability for "O=C(Nc1ccccc1C(=O)O)c1cccc(NC(=O)c2ccc(Br)o2)c1" stands at 94.4

For reference, reported viability for "Cc1occc1C(=O)Nc1cccnc1" stands at 94.1

For reference, reported viability for "CCn1c2ccccc2c2cc(N)ccc21" stands at 56.8

For reference, reported viability for "O=C(c1cnc2sccn2c1=O)N1CCc2ccccc2C1" stands at 96.2

For reference, reported viability for "Cc1cc(Cl)c(S(=O)(=O)Nc2ccc3c(c2)OCCO3)cc1OCC(N)=O" stands at 85.5

For reference, reported viability for "Fc1ccccc1Cn1nnc2c(-n3ccnc3)ncnc21" stands at 77.1

* * *

# ASSAY_NAME: reversal of MRP1-mediated doxorubicin resistance, pilot screen, H69AR cells, doxorubicin co-treatment (AID 601)
# CONDITION_SUMMARY: H69AR cells + 2 uM doxorubicin, CellTiter-Glo, 72 h; at 10 µM; stronger effect = higher value
Task for the reader: assign each of the following compounds its reported differential viability (reversal).
The answer is to be given in %; state only the numeric part.

For reference, reported differential viability (reversal) for "CCOC(=O)c1c(C)oc2c1c(C=NCc1ccccn1)c(O)c1ccccc12" stands at 6.13

For reference, reported differential viability (reversal) for "Cc1cn2c(-c3ccncc3)nnc2s1" stands at 7.13

For reference, reported differential viability (reversal) for "CN(C(=O)c1ccc(S(=O)(=O)NC2CCCC2)cc1)C1CCCCC1" stands at 9.82

For reference, reported differential viability (reversal) for "CCN(CC(=O)Nc1c(C(=O)OC)[nH]c2ccccc12)c1ccc2c(c1)OCO2" stands at -6.82

For reference, reported differential viability (reversal) for "COc1ccccc1CNC(=O)Nc1cccs1" stands at 5.65

For reference, reported differential viability (reversal) for CCn1cc(C(=O)OCC(=O)OC2CC(C)CCC2C(C)C)c(=O)c2ccc(C)nc21 (stereo not drawn) stands at -1.67

For reference, reported differential viability (reversal) for "CN1CCN(C(=O)c2ccc3c(=O)n(CCc4ccccc4)c(=S)[nH]c3c2)CC1" stands at 25.3

For reference, reported differential viability (reversal) for "Cc1noc(NS(=O)(=O)c2ccc(NC(=O)CCC3CCCC3)cc2)c1C" stands at 11.6

For reference, reported differential viability (reversal) for "CCc1c(C)nc2ncnn2c1N1CCC(C(=O)NCc2cccc(OC)c2)CC1" stands at -9.81

For reference, reported differential viability (reversal) for "CN(C)c1cccc(C(=O)OCC(=O)NCc2ccco2)c1" stands at 7.69

For reference, reported differential viability (reversal) for CCOC(=O)c1ccc(N2C(=O)CC(Sc3nnc(C)s3)C2=O)cc1 (stereo not drawn) stands at 4.82

For reference, reported differential viability (reversal) for "O=C(Nc1nnc(C2CCCC2)s1)C1CCN(S(=O)(=O)c2ccc(Cl)cc2)CC1" stands at 3.83

For reference, reported differential viability (reversal) for "c1ccc(-c2cc(CSc3nc4ccccc4[nH]3)on2)cc1" stands at 15.5

For reference, reported differential viability (reversal) for "COc1ccc(Nc2nc(Nc3ccc(OC)cc3)nc(-n3[nH]c(=O)c(C)c3C)n2)cc1" stands at 1.18

For reference, reported differential viability (reversal) for "C=CCn1c(SCC#N)nc2c(c1=O)C(C)(C)Cc1ccccc1-2" stands at -6.17

For reference, reported differential viability (reversal) for "Cc1ccc(S(=O)(=O)N2CCN(C(=O)CSc3nnnn3C)C2)cc1" stands at 1.78

For reference, reported differential viability (reversal) for "Cc1ccccc1Cc1c(C)nc2c(C(=O)N3CCN(Cc4ccc5c(c4)OCO5)CC3)cnn2c1C" stands at 6.94

For reference, reported differential viability (reversal) for "Cc1cc(C(=O)COc2cccc3cccnc23)c(C)n1C" stands at -11.7

For reference, reported differential viability (reversal) for "Cc1ccc(-c2nn[nH]n2)cc1" stands at -4.72

For reference, reported differential viability (reversal) for "COc1cc(NS(=O)(=O)c2ccc(N)cc2)ncn1" stands at 27

For reference, reported differential viability (reversal) for CC(NCCc1ccc(O)cc1)C(O)c1ccc(O)cc1 (stereo not drawn) stands at 7.11

For reference, reported differential viability (reversal) for "O=C(Nc1ccc(N2CCOCC2)c(Cl)c1)c1ccc(Br)o1" stands at -12.4

For reference, reported differential viability (reversal) for "N#Cc1nc(COc2ccccc2)oc1NCCN1CCOCC1" stands at 11.7

* * *

# TARGET_OR_SYSTEM: Receptor tyrosine-protein kinase erbB-2 (Homo sapiens) (UniProt P04626)
# Sequence (P04626 whole entry, looked up): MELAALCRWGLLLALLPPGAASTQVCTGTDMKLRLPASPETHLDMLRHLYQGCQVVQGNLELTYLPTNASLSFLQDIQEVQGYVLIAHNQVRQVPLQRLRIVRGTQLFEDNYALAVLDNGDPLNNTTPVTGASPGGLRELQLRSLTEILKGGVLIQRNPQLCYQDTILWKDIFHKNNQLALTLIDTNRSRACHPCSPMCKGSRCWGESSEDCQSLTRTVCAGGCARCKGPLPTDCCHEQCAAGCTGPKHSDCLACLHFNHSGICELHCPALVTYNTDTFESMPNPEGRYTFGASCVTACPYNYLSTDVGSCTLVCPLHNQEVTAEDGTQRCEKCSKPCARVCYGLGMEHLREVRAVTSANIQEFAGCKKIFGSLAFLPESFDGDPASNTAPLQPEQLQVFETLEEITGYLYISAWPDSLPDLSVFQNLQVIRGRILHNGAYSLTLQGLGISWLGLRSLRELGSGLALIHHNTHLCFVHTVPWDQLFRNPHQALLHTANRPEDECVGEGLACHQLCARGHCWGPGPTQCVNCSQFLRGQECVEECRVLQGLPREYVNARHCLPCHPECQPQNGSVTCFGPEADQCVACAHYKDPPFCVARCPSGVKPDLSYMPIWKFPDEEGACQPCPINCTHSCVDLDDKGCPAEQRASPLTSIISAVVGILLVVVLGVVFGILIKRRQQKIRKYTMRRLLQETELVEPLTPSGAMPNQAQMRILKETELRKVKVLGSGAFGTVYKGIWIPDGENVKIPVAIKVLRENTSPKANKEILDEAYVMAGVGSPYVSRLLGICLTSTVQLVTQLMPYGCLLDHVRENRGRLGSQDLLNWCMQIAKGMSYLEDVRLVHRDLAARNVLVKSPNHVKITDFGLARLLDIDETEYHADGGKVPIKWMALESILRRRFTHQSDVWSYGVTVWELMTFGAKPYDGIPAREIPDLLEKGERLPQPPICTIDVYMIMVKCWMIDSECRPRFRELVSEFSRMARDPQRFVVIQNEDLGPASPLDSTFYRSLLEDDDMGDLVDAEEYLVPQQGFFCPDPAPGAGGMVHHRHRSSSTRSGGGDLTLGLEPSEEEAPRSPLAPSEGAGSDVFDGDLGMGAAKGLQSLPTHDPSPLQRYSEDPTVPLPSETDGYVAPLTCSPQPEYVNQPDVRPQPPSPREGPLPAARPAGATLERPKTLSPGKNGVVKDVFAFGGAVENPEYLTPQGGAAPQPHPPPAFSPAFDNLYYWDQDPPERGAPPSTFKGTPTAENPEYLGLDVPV
# ASSAY_NAME: reducers of endogenous Her2 protein level, primary screen, SKBR3 breast tumor cells, AlphaScreen, ATP viability (AID 461);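 also: lower value means less Her2 protein in the cells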
# CONDITION_SUMMARY: 18-24 h, at 10 µM, stronger effect = lower value
ENDPOINT_LABEL: Her2 level (%)
The answer is to be given in %; state only the numeric part.

For reference, reported Her2 level for CSc1ccccc1C(=O)NC1CC2CCC1C2 (configuration not stated) stands at 89.5

For reference, reported Her2 level for "Cn1c(=O)cc(OCC(=O)NCCCN2CCN(Cc3ccccc3)CC2)c2ccccc21" stands at 104

For reference, reported Her2 level for "C1=Nc2c(NCc3ccccc3)ncnc2Oc2ccccc21" stands at 84.5

For reference, reported Her2 level for COc1ccc(C2=NOC(C(=O)Nc3cc(Br)ccc3O)C2)cc1OC (configuration not stated) stands at 89

For reference, reported Her2 level for "Cn1c(=O)c2c3c(sc2n2c(SCC(=O)c4ccc(Cl)cc4)nnc12)COC(C)(C)C3" stands at 102

For reference, reported Her2 level for "Cc1cc(C)nc(NS(=O)(=O)c2ccc(NC(=O)Cn3c(=O)oc4ccccc43)cc2)n1" stands at 101

For reference, reported Her2 level for "O=C(Nc1ccc(S(=O)(=O)N2CCCCCC2)cc1)c1ccco1" stands at 89.5

For reference, reported Her2 level for Cc1c(/C(O)=C2/C(=O)C(=O)N(CCN3CCOCC3)C2c2cccs2)cnn1-c1ccccc1 (configuration not stated) stands at 114

For reference, reported Her2 level for "Cc1cc(=O)[nH]c(S/C=C/c2ccccc2)n1" stands at 95

For reference, reported Her2 level for "O=c1[nH]c(=O)n([C@H]2C[C@H](O)[C@@H](CO)O2)cc1F" stands at 74

For reference, reported Her2 level for "O=C(Cn1ncc2c(=O)oc3ccccc3c21)Nc1nc2ccccc2s1" stands at 102

For reference, reported Her2 level for "COCc1nnc(NC(=O)c2ccc(NC(C)=O)cc2)s1" stands at 102

For reference, reported Her2 level for "COc1cccc(OCCSc2nnc3sc4ccccc4n23)c1" stands at 98

For reference, reported Her2 level for CC1(C)OC(=O)N(c2cccnc2)C1(C)O (configuration not stated) stands at 83

For reference, reported Her2 level for "O=C(Nc1ccc(S(=O)(=O)N2CCc3ccccc32)cc1)c1ccc2c(c1)OCO2" stands at 75.5

For reference, reported Her2 level for "NC(=O)C1(N2CCCCC2)CCN(CC(=O)Nc2cc(Cl)ccc2Cl)CC1" stands at 91.5

For reference, reported Her2 level for COc1cc(C)nc(N2CCCC(C(=O)Nc3cccc(Cl)c3Cl)C2)n1 (configuration not stated) stands at 62.5

For reference, reported Her2 level for "Cc1ccc2c(C)nc(Nc3nc(CSc4nnnn4-c4ccccc4)cc(=O)[nH]3)nc2c1" stands at 80

For reference, reported Her2 level for CC1CCc2nc(NC(=O)CN3CCN(Cc4ccc5c(c4)OCO5)CC3)sc2C1 (configuration not stated) stands at 77.5

For reference, reported Her2 level for "COc1ccc(-c2c3c(=O)n(C)c(=O)n(C)c3cn2-c2cccc(OC)c2)cc1" stands at 97

For reference, reported Her2 level for O=C1OC(N2CCN(c3ccccn3)CC2)c2ccccc21 (configuration not stated) stands at 80.5

For reference, reported Her2 level for CCN(CC)C(=O)C1=C(C)NC(=O)NC1c1c(F)cccc1Cl (configuration not stated) stands at 108
